Where do these numbers come from? They come from patent US11946041B2.

assayTarget: CCR4 (Homo sapiens, UniProt P51679)
Construct: host or cells: CHO-K1
Sequence (P51679 1-360): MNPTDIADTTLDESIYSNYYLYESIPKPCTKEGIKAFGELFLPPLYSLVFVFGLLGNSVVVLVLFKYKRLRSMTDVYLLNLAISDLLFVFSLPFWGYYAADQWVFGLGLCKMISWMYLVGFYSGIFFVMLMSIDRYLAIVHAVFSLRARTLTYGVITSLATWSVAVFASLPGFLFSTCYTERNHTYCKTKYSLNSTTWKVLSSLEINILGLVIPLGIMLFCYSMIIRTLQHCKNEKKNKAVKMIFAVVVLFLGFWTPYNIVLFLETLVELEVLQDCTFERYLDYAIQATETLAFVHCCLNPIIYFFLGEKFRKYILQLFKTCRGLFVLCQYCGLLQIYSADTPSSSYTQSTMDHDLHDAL
method: PathHunter eXpress CCR4 CHO-K1 β-Arrestin GPCR Assay, antagonist format with CCL22
Assay type: cell-based
conditionContext: 10 nM CCL22, 0.2 uM
reportedMetric: Raw Data
Answer field: number only, no words.

Under CCR4 (Homo sapiens, UniProt P51679): Raw Data value of ACPLMSSVNCTAGCA [24-13-00-N001, bicyclic peptide ligand, TBMB scaffold, from CCR4 cell-based selection] ? 195355

Give Raw Data (CCR4 (Homo sapiens, UniProt P51679)) of the following sequence: ACQTLCNTAEDIRCA [24-16-00-N001, bicyclic peptide ligand, TBMB scaffold, from CCR4 cell-based selection] 159872

State its Raw Data on CCR4 (Homo sapiens, UniProt P51679): ACLNGCRNTNSQCA [24-11-00-N001, bicyclic peptide ligand, TATA scaffold, from CCR4 cell-based selection] 151383

Checklist item: Raw Data tested on CCR4 (Homo sapiens, UniProt P51679), entry ACLSCARHGNQCA [24-12-00-N001, bicyclic peptide ligand, TATA scaffold, from CCR4 cell-based selection] , value? 197817

For the record ACRAVHSLRCLTTCA [24-17-00-N001, bicyclic peptide ligand, TATA scaffold, from CCR4 cell-based selection] , what value of Raw Data is listed for CCR4 (Homo sapiens, UniProt P51679)? 151630

For the record ACQLTCLPPPRQPGCA [24-15-00-N001, bicyclic peptide ligand, TATA scaffold, from CCR4 cell-based selection] , what value of Raw Data is listed for CCR4 (Homo sapiens, UniProt P51679)? 160790

Enter reported Raw Data observed with CCR4 (Homo sapiens, UniProt P51679) for ACQLTCLTPARQPGCA [24-14-00-N001, bicyclic peptide ligand, TATA scaffold, from CCR4 cell-based selection] 151985

* * *

assayTarget: CCR4 (Homo sapiens)
Construct: host or cells: CHO-K1
Sequence (P51679 1-360): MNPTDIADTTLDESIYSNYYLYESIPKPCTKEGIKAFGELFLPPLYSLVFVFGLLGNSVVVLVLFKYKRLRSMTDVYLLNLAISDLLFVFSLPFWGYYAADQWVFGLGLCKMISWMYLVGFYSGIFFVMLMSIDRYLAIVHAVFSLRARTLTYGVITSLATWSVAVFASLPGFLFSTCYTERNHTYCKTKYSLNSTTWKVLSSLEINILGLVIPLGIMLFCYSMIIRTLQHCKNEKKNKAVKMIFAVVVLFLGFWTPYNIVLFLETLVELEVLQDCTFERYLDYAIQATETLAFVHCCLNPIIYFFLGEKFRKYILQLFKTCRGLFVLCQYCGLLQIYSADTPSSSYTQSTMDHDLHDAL
method: PathHunter eXpress CCR4 CHO-K1 β-Arrestin GPCR Assay, antagonist format with CCL22
Assay type: cell-based
conditionContext: 10 nM CCL22, 0.6 uM
reportedMetric: Raw Data
Form field (numeric): enter value without unit.

Hi! What's the reported Raw Data for ACLSCARHGNQCA [24-12-00-N001, bicyclic peptide ligand, TATA scaffold, from CCR4 cell-based selection] on CCR4 (Homo sapiens)? 207362

Recorded Raw Data for ACRAVHSLRCLTTCA [24-17-00-N001, bicyclic peptide ligand, TATA scaffold, from CCR4 cell-based selection] with CCR4 (Homo sapiens), please? 146982

Any idea what Raw Data came out for ACPLMSSVNCTAGCA [24-13-00-N001, bicyclic peptide ligand, TBMB scaffold, from CCR4 cell-based selection] on CCR4 (Homo sapiens)? 181254

Requested read-out Raw Data, target or system CCR4 (Homo sapiens), entry ACLNGCRNTNSQCA [24-11-00-N001, bicyclic peptide ligand, TATA scaffold, from CCR4 cell-based selection] 163219

Notebook entry, CCR4 (Homo sapiens) assay: Raw Data of ACQTLCNTAEDIRCA [24-16-00-N001, bicyclic peptide ligand, TBMB scaffold, from CCR4 cell-based selection] = ? 147765

Please state recorded Raw Data (tested on CCR4 (Homo sapiens)) of ACQLTCLPPPRQPGCA [24-15-00-N001, bicyclic peptide ligand, TATA scaffold, from CCR4 cell-based selection] 164042

Short answer please: Raw Data, CCR4 (Homo sapiens), entry ACQLTCLTPARQPGCA [24-14-00-N001, bicyclic peptide ligand, TATA scaffold, from CCR4 cell-based selection] 158845
